Assay Remarks: Small-animal PET of MDA-MB-435 tumor-bearing mice
Test Context: female, athymic nude, mouse, in vivo, iv, total radioactivity, MDA-MB-435 tumor uptake
Metric: tissue uptake at 4 h (%ID/g)
Report the value in %ID/g with no unit label.

In: Could you tell me which tissue uptake at 4 h is on file for CSCC[C@H](NC(=O)[C@H](CC(C)C)NC(=O)[C@H](Cc1c[nH]cn1)NC(=O)CNC(=O)[C@@H](NC(=O)[C@H](C)NC(=O)[C@H](Cc1c[nH]c2ccccc12)NC(=O)[C@H](CCC(N)=O)NC(=O)CCCCCNC(=O)CC[C@H](NC(=S)Nc1ccc(C[C@H]2CN(CC(=O)O)CCN(CC(=O)O)CCN2CC(=O)O)cc1)C(=O)NCCCC[C@@H]1NC(=O)[C@@H](Cc2ccc(O)cc2)NC(=O)[C@H](CC(=O)O)NC(=O)CNC(=O)[C@H](CCCNC(=N)N)NC1=O)C(C)C)C(N)=O [^64Cu-NOTA-RGD-BBN, metal not drawn] ?
Out: 1.79

----------
Assay Remarks: in vivo
Set-up: species or system mice
Test Context: BALB/c, mouse, iv, 370 kBq, total radioactivity, pancreatic uptake
Metric: tissue uptake at 1 h (%ID/g)
Express it in %ID/g; write the number only.

In: I would be grateful if you could share the reported tissue uptake at 1 h for CSCC[C@H](NC(=O)[C@H](CC(C)C)NC(=O)[C@H](Cc1c[nH]cn1)NC(=O)CNC(=O)[C@@H](NC(=O)[C@H](C)NC(=O)[C@H](Cc1c[nH]c2ccccc12)NC(=O)[C@H](CCC(N)=O)NC(=O)CCCCCNC(=O)CC[C@H](NC(=S)Nc1ccc(C[C@H]2CN(CC(=O)O)CCN(CC(=O)O)CCN2CC(=O)O)cc1)C(=O)NCCCC[C@@H]1NC(=O)[C@@H](Cc2ccc(O)cc2)NC(=O)[C@H](CC(=O)O)NC(=O)CNC(=O)[C@H](CCCNC(=N)N)NC1=O)C(C)C)C(N)=O [^64Cu-NOTA-RGD-BBN, metal not drawn] .
Out: 7.03

----------
Assay Remarks: in vivo
Test Context: male, athymic nude, mouse, in vivo, iv, 5.5 MBq, total radioactivity, Tumor uptake
Metric: tissue uptake at 1 h (%ID/g)
Dear colleague, please return just the value in %ID/g, with no unit written.

Below, 3 compounds whose answers are already recorded.
CSCC[C@H](NC(=O)[C@H](CC(C)C)NC(=O)[C@H](Cc1c[nH]cn1)NC(=O)CNC(=O)[C@@H](NC(=O)[C@H](C)NC(=O)[C@H](Cc1c[nH]c2ccccc12)NC(=O)[C@H](CCC(N)=O)NC(=O)CCCCCNC(=O)CC[C@H](NC(=S)Nc1ccc(C[C@H]2CN(CC(=O)O)CCN(CC(=O)O)CCN2CC(=O)O)cc1)C(=O)NCCCC[C@@H]1NC(=O)[C@@H](Cc2ccc(O)cc2)NC(=O)[C@H](CC(=O)O)NC(=O)CNC(=O)[C@H](CCCNC(=N)N)NC1=O)C(C)C)C(N)=O [^64Cu-NOTA-RGD-BBN, metal not drawn] ... 2.78
CSCC[C@H](NC(=O)[C@H](CC(C)C)NC(=O)[C@H](Cc1c[nH]cn1)NC(=O)CNC(=O)[C@@H](NC(=O)[C@H](C)NC(=O)[C@H](Cc1c[nH]c2ccccc12)NC(=O)[C@H](CCC(N)=O)NC(=O)CCCCCNC(=S)Nc1ccc(C[C@H]2CN(CC(=O)O)CCN(CC(=O)O)CCN2CC(=O)O)cc1)C(C)C)C(N)=O [^64Cu-NOTA-BBN, metal not drawn, reference compound] ... 1.25
N=C(N)NCCC[C@@H]1NC(=O)[C@H](CCCCNC(=S)Nc2ccc(C[C@H]3CN(CC(=O)O)CCN(CC(=O)O)CCN3CC(=O)O)cc2)NC(=O)[C@@H](Cc2ccc(O)cc2)NC(=O)[C@H](CC(=O)O)NC(=O)CNC1=O [^64Cu-NOTA-RGD, metal not drawn, reference compound] ... 0.83

// switching to the query compound
In: Would you mind telling me what tissue uptake at 1 h value was observed for CSCC[C@H](NC(=O)[C@H](CC(C)C)NC(=O)[C@H](Cc1c[nH]cn1)NC(=O)CNC(=O)[C@@H](NC(=O)[C@H](C)NC(=O)[C@H](Cc1c[nH]c2ccccc12)NC(=O)[C@H](CCC(N)=O)NC(=O)CCCCCNC(=O)CC[C@H](NC(=O)CN1CCN(CC(=O)O)CCN(CC(=O)O)CCN(CC(=O)O)CC1)C(=O)NCCCC[C@@H]1NC(=O)[C@@H](Cc2ccc(O)cc2)NC(=O)[C@H](CC(=O)O)NC(=O)CNC(=O)[C@H](CCCNC(=N)N)NC1=O)C(C)C)C(N)=O [^64Cu-DOTA-RGD-BBN, metal not drawn] ?
Out: 1.87

----------
Assay Remarks: in vivo
Test Context: mouse, in vivo, iv, 5.5 MBq, total radioactivity, Blood uptake
Metric: tissue uptake at 4 h (%ID/g)
I only need the number, in %ID/g, no unit after it.

In: Value lookup for tissue uptake at 4 h; key = CSCC[C@H](NC(=O)[C@H](CC(C)C)NC(=O)[C@H](Cc1c[nH]cn1)NC(=O)CNC(=O)[C@@H](NC(=O)[C@H](C)NC(=O)[C@H](Cc1c[nH]c2ccccc12)NC(=O)[C@H](CCC(N)=O)NC(=O)CCCCCNC(=S)Nc1ccc(C[C@H]2CN(CC(=O)O)CCN(CC(=O)O)CCN2CC(=O)O)cc1)C(C)C)C(N)=O [^64Cu-NOTA-BBN, metal not drawn, reference compound]
Out: 0.19

----------
Assay Remarks: Small-animal PET of PC-3 tumor-bearing mice
Test Context: male, athymic nude, mouse, in vivo, iv, 3.7 MBq, total radioactivity, PC-3 tumor uptake, PET ROI, 120 min after injection of 3.7 MBq
Metric: tissue uptake at 2 h

In: Given the compound CSCC[C@H](NC(=O)[C@H](CC(C)C)NC(=O)[C@H](Cc1c[nH]cn1)NC(=O)CNC(=O)[C@@H](NC(=O)[C@H](C)NC(=O)[C@H](Cc1c[nH]c2ccccc12)NC(=O)[C@H](CCC(N)=O)NC(=O)CCCCCNC(=O)c1ccc(F)cc1)C(C)C)C(N)=O [^18F-FB-BBN, reference compound] , what is its reported tissue uptake at 2 h?
Out: 0.29 %ID/g

----------
Assay Remarks: in vivo
Test Context: mouse, in vivo, iv, total radioactivity, T/NT ratio, tumor/blood
Metric: tissue to tissue ratio at 2 h
Keep the answer to the number alone.

In: Look up tissue to tissue ratio at 2 h: CSCC[C@H](NC(=O)[C@H](CC(C)C)NC(=O)[C@H](Cc1c[nH]cn1)NC(=O)CNC(=O)[C@@H](NC(=O)[C@H](C)NC(=O)[C@H](Cc1c[nH]c2ccccc12)NC(=O)[C@H](CCC(N)=O)NC(=O)CCCCCNC(=O)CC[C@H](NC(=O)COCCOCCOCCNC(=O)c1ccc([18F])cc1)C(=O)NCCCC[C@@H]1NC(=O)[C@@H](Cc2ccc(O)cc2)NC(=O)[C@H](CC(=O)O)NC(=O)CNC(=O)[C@H](CCCNC(=N)N)NC1=O)C(C)C)C(N)=O [^18F-FB-PEG3-RGD-BBN]
Out: 8.1

----------
Assay Remarks: in vivo
Test Context: mouse, in vivo, iv, 5.5 MBq, total radioactivity, Kidney uptake
Metric: tissue uptake at 20 h (%ID/g)
Number only, in %ID/g; omit the unit.

Example cases with answers are listed next.
CSCC[C@H](NC(=O)[C@H](CC(C)C)NC(=O)[C@H](Cc1c[nH]cn1)NC(=O)CNC(=O)[C@@H](NC(=O)[C@H](C)NC(=O)[C@H](Cc1c[nH]c2ccccc12)NC(=O)[C@H](CCC(N)=O)NC(=O)CCCCCNC(=O)CC[C@H](NC(=O)CN1CCN(CC(=O)O)CCN(CC(=O)O)CCN(CC(=O)O)CC1)C(=O)NCCCC[C@@H]1NC(=O)[C@@H](Cc2ccc(O)cc2)NC(=O)[C@H](CC(=O)O)NC(=O)CNC(=O)[C@H](CCCNC(=N)N)NC1=O)C(C)C)C(N)=O [^64Cu-DOTA-RGD-BBN, metal not drawn] ... 1.64
N=C(N)NCCC[C@@H]1NC(=O)[C@H](CCCCNC(=S)Nc2ccc(C[C@H]3CN(CC(=O)O)CCN(CC(=O)O)CCN3CC(=O)O)cc2)NC(=O)[C@@H](Cc2ccc(O)cc2)NC(=O)[C@H](CC(=O)O)NC(=O)CNC1=O [^64Cu-NOTA-RGD, metal not drawn, reference compound] ... 0.98
CSCC[C@H](NC(=O)[C@H](CC(C)C)NC(=O)[C@H](Cc1c[nH]cn1)NC(=O)CNC(=O)[C@@H](NC(=O)[C@H](C)NC(=O)[C@H](Cc1c[nH]c2ccccc12)NC(=O)[C@H](CCC(N)=O)NC(=O)CCCCCNC(=S)Nc1ccc(C[C@H]2CN(CC(=O)O)CCN(CC(=O)O)CCN2CC(=O)O)cc1)C(C)C)C(N)=O [^64Cu-NOTA-BBN, metal not drawn, reference compound] ... 0.5

Turning now to a further compound:
In: Item CSCC[C@H](NC(=O)[C@H](CC(C)C)NC(=O)[C@H](Cc1c[nH]cn1)NC(=O)CNC(=O)[C@@H](NC(=O)[C@H](C)NC(=O)[C@H](Cc1c[nH]c2ccccc12)NC(=O)[C@H](CCC(N)=O)NC(=O)CCCCCNC(=O)CC[C@H](NC(=S)Nc1ccc(C[C@H]2CN(CC(=O)O)CCN(CC(=O)O)CCN2CC(=O)O)cc1)C(=O)NCCCC[C@@H]1NC(=O)[C@@H](Cc2ccc(O)cc2)NC(=O)[C@H](CC(=O)O)NC(=O)CNC(=O)[C@H](CCCNC(=N)N)NC1=O)C(C)C)C(N)=O [^64Cu-NOTA-RGD-BBN, metal not drawn] has what recorded tissue uptake at 20 h?
Out: 1.87
